- System: clinically isolated Enterococcus faecium
- Protocol Description: In vitro antibacterial activity against clinical isolates, Experiment 2
- Assay type: cell-based
- Run Conditions: 25 clinical strains E. faecium, 90% of strains, read-out: MIC90
Counter-ions that a name gives are not always drawn.
Catalogue of MIC90 values
Test Readout: MIC90 (µg/mL)

                                   molecule  test_readout  assay_value
0  CN1Cc2csc3c(C(=O)O)c(=O)c4cc(F)c(N5CCOC(CF)C5)c1c4n23 (stereo not shown)         MIC90         3.13
1  CN1Cc2csc3c(C(=O)O)c(=O)c4cc(F)c(N5CCN(C)C(CO)C5)c1c4n23 (stereo not shown) [Compound (I), hydrochloride]         MIC90         12.5
2  CN1Cc2csc3c(C(=O)O)c(=O)c4cc(F)c(N5CCO[C@H](CO)C5)c1c4n23         MIC90         3.13
3  CN1Cc2csc3c(C(=O)O)c(=O)c4cc(F)c(N5CCOC(CCl)C5)c1c4n23 (stereo not shown)         MIC90         3.13

###

- System: Staphylococcus aureus IID 803
- Protocol Description: Effect on treatment of general infectious disease (systemic infection in mice), Experiment 3
- Format: in vivo, Staphylococcus aureus; ddY male mice
- Run Conditions: Staphylococcus aureus, IID803, 168 h; oral, 1 h after i.p. infection, mice, survival after one week, average of several tests; read-out: 50% effective dose (ED50)
Where a name gives a salt, the structure may show the parent alone.
Test Readout: ED50 (mg/kg)

>>> df
                                   compound  test_readout  assay_value
0  CC1CN(c2c(F)cc3c(=O)c(C(=O)O)c4scc5n4c3c2N(C)C5)CCO1 (stereo not drawn) [Compound (A)]          ED50          3.5
1  CN1CCN(c2c(F)cc3c(=O)c(C(=O)O)c4scc5n4c3c2OC5)CC1 [Compound (Y), hydrochloride, reference compound]          ED50         10.8
2  CN1Cc2csc3c(C(=O)O)c(=O)c4cc(F)c(N5CCOC(CO)C5)c1c4n23 (stereo not drawn) [Compound (B)]          ED50          5.1

###

- Test system: Escherichia coli NIHJ JC-2
Where a name gives a salt, the structure may show the parent alone.
Test Readout: MIC (µg/mL)

>>> df
                                   molecule                 system_name  assay_value
0  COCC1CN(c2c(F)cc3c(=O)c(C(=O)O)c4scc5n4c3c2N(C)C5)CCN1C (stereo not drawn) [Compound (J), hydrochloride]  Escherichia coli NIHJ JC-2         0.39
1  CN1CCN(c2c(F)cc3c(=O)c(C(=O)O)c4scc5n4c3c2OC5)CC1 [Compound (Y), hydrochloride, reference compound]  Escherichia coli NIHJ JC-2          0.1
2  CN1Cc2csc3c(C(=O)O)c(=O)c4cc(F)c(N5CCC(O)CC5)c1c4n23  Escherichia coli NIHJ JC-2          0.1

###

- System: clinically isolated Staphylococcus aureus
- Protocol Description: In vitro antibacterial activity against clinical isolates, Experiment 2
- Format: cell-based
- Run Conditions: 25 clinical strains S. aureus incl. 16 methicillin resistant
- Procedure: The above solutions were then diluted with sterilized distilled water to prepare a standard solution with a concentration of the test compound: 1000 μg/ml each. For the preculture of each microorganism, there was used as the medium a sensitivity test broth (manufactured by Nissui Seiyaku K. K., Japan), and for the measurement of MIC, there was used a sensitivity test agar medium (manufactured by Nissui Seiyaku K. K.). The clinically isolates used above were isolated from Nov. 1988 to Jun. […]
Where a name gives a salt, the structure may show the parent alone.
Test Readout: MIC

In [3]: df
Out[3]:
                                   compound                               system_name          assay_value
0  CN1Cc2csc3c(C(=O)O)c(=O)c4cc(F)c(N5CCN(C)C(CO)C5)c1c4n23 (stereo not shown) [Compound (I), hydrochloride]  clinically isolated Staphylococcus aureus    0.1 to 12.5 µg/mL
1  CC1COc2c(N3CCN(C)CC3)c(F)cc3c(=O)c(C(=O)O)cn1c23 (stereo not shown) [Compound (X), reference compound]  clinically isolated Staphylococcus aureus     0.39 to 50 µg/mL
2  CN1Cc2csc3c(C(=O)O)c(=O)c4cc(F)c(N5CCOC(CCl)C5)c1c4n23 (stereo not shown) [Compound (D)]  clinically isolated Staphylococcus aureus   0.006 to 0.2 µg/mL
3  CN1CCN(c2c(F)cc3c(=O)c(C(=O)O)c4scc5n4c3c2OC5)CC1 [Compound (Y), hydrochloride, reference compound]  clinically isolated Staphylococcus aureus   0.05 to 12.5 µg/mL
4  COCC1CN(c2c(F)cc3c(=O)c(C(=O)O)c4scc5n4c3c2N(C)C5)CCO1 (stereo not shown) [Compound (E)]  clinically isolated Staphylococcus aureus  0.006 to 0.78 µg/mL
5  CN1Cc2csc3c(C(=O)O)c(=O)c4cc(F)c(N5CCOC(CO)C5)c1c4n23 (stereo not shown) [Compound (B)]  clinically isolated Staphylococcus aureus  0.006 to 0.78 µg/mL
6  CN1Cc2csc3c(C(=O)O)c(=O)c4cc(F)c(N5CCN(C)C(CF)C5)c1c4n23 (stereo not shown) [Compound (K), hydrochloride]  clinically isolated Staphylococcus aureus  0.025 to 1.56 µg/mL

meta.source: patent US5191079A
